Subject of test: MAP/microtubule affinity-regulating kinase 3 (Homo sapiens) (UniProt P27448)
Sequence (P27448 whole entry, looked up): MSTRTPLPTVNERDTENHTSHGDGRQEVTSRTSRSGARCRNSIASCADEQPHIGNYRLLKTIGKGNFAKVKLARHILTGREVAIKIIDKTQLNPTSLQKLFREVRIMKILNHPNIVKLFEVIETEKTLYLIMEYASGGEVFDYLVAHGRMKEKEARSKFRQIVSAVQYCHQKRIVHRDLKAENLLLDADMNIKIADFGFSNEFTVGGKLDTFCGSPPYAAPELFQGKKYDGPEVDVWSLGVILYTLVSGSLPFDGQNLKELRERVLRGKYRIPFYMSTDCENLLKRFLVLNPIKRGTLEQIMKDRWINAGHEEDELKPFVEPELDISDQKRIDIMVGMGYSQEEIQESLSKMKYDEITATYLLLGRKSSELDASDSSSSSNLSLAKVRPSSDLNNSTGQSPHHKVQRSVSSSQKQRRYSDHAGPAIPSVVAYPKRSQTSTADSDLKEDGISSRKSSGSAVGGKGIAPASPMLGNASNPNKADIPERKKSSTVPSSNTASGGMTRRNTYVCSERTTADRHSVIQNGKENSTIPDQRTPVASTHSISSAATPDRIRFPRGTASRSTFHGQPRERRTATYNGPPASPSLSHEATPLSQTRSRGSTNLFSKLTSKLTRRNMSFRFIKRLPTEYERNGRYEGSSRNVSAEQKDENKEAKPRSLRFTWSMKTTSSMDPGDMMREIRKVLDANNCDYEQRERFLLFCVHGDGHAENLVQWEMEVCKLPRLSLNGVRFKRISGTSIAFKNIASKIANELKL
Experimental setup: at 0.1 µM;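 note: mean percent inhibition of MARK3 kinase activity, measured within the GSK PKIS screening panel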
For each record, write down the corresponding inhibition.
One number for each entry, in %.

Field: example entries. Status: answers known.
> print(dat)
                              sample.smiles  obs.value
1  NS(=O)(=O)c1ccc(N/N=C2\C(=O)Nc3ccc(C(=O)NCc4ccncc4)cc32)cc1        4.2
2  CCOc1ccc2c(-c3ccnc(Nc4cc(OC)cc(C(F)(F)F)c4)n3)cnn2n1       -1.2
3  Fc1ccc(Nc2nccc(-c3c(-c4ccc(C(F)(F)F)cc4)nn4ncccc34)n2)cc1F       3.28

Give inhibition for all compounds that follow.
1. N#Cc1cccc(Nc2ncc(-c3ccccc3)o2)c1
2. Cc1cc(O)cc(C)c1/C=C/c1cncc(C(N)=O)c1
3. CS(=O)(=O)CCNCc1ccoc1-c1ccc2ncnc(Nc3ccc(OCc4ccccc4)cc3)c2c1

Result:
[-0.93, 3.52, -2.66]

# batch: return inhibition for each of the 4 compounds below
1. CN1CCC(n2cnc(-c3ccc(F)cc3)c2-c2ccnc(NCCO)n2)CC1
2. Cc1cc(O)cc(C)c1/C=C/c1cncc(C(=O)OC(C)(C)C)c1
3. CCn1c(-c2nonc2N)nc2cncc(C(=O)NCCNC)c21
4. CCS(=O)(=O)c1ccc(OC)c(Nc2ncc(-c3cccc(C(C)=O)c3)o2)c1

Result:
[4.03, 2.5, 1.81, 0.57]
